Test system: K98450-129-R-PDC complex spheroid growth, percent test/control;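 note: luminescence used as a proxy for viable cell amount; spheroids exposed to agents for seven days before the viability readout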
PROCEDURE_TEXT: Anticancer human tumor K98450-129-R-PDC patient-derived colon adenocarcinoma cell line growth inhibition [RAS]
RECORDED_CONDITIONS: second compound 1 µM; first compound 0.0316 µM; hits give low values
RECORDED_ENDPOINT: viability, T/C (%)
Supply the numeric figure in %, leaving out any unit text.

Consider the worked cases shown below.
CCC(CC)c1cc(NC2CCC(N)C2)n2nccc2n1 (stereo not drawn) + C=CC(=O)N1CCN(c2nc(OCC3CCCN3C)nc3c(F)c(-c4nc(N)cc(C)c4C(F)(F)F)c(Cl)cc23)C(C)C1 = 32
NC1c2ccccc2OC12CCN(c1cnc3c(N4CCCc5ncccc54)n[nH]c3n1)CC2 (stereo not drawn) + C#Cc1c(F)ccc2cc(O)cc(-c3ncc4c(N5CC6CCC(C5)N6)nc(OCC56CCCN5CC(F)C6)nc4c3F)c12 = 91.2

Now look at this entry.
Reported viability, T/C of CCN1CCN(Cc2ccc(Nc3ncc(F)c(-c4cc(F)c5nc(C)n(C(C)C)c5c4)n3)nc2)CC1 + C#Cc1c(F)ccc2cc(O)cc(-c3ncc4c(N5CC6CCC(C5)N6)nc(OCC56CCCN5CC(F)C6)nc4c3F)c12 : 90.1

Measured values drawn from PubChem BioAssay AID2060891 for this set.
